Settings: 288.15 K; 101.33 kPa; Liquid; Concentric cylinders viscometry

compound.structure | viscosity [mPa·s]
CCOCCOCCO | 5.157
OCCOCCO | 47.14
COCCOCCO | 4.514
COCCOCCOCCOC | 2.414

---

Conditions: 328.15 K; 101.33 kPa; Liquid; Concentric cylinders viscometry

compound | viscosity, mPa·s
OCCOCCOCCO [triethylene glycol] | 11.19
CCOCCO [2-ethoxyethan-1-ol] | 1.051
COCCOCCOC [2,5,8-trioxanonane] | 0.674
OCCO [1,2-ethanediol] | 6.007
COCCOCCOCCOC [2,5,8,11-tetraoxadodecane] | 1.179
COCCOCCO [2-(2-methoxyethoxy)ethanol] | 1.772
OCCOCCO [diethylene glycol] | 8.849
COCCOCCOCCOCCOC [2,5,8,11,14-pentaoxapentadecane] | 1.832
CCOCCOCCO [3,6-dioxa-1-octanol] | 1.901
CCOCCOCCOCC [diethylene glycol diethyl ether] | 0.795
